# System: Plasmodium falciparum (strain 3D7)
# METHOD DESCRIPTION: In vitro anti-Plasmodium falciparum activity (infected erythrocytes, radioactive precursor incorporation)
# Assay type: cell-based
# ASSAY SETUP: Plasmodium falciparum, 3D7, Erythrocyte; 3H-hypoxanthine detection; Batch A; 48 h contact; read-out: Activity against P. falciparum (3D7), detection 3H-Hypoxanthine, Batch A IC50
Measured IC50 of individual entries

Example molecules with recorded IC50:
> print(dat)
                               entry.smiles     result
1  O=P(O)(O)C[C@H](O)CCn1cnc2cc(Cl)c(Cl)cc21   > 100 µM
2    O=c1[nH]cnc2c1ncn2CC[C@H](O)CP(=O)(O)O  > 1000 µM
3  O=c1[nH]c(=O)c2ncn(CC[C@@H](O)CP(=O)(O)O)c2[nH]1   > 100 µM

IN: Report value: IC50, system: Plasmodium falciparum (strain 3D7), molecule: Nc1ncc2ncn(CC[C@@H](O)CP(=O)(O)O)c2n1
OUT: 62 µM

IN: Report value: IC50, system: Plasmodium falciparum (strain 3D7), molecule: Nc1ncnc2c1ncn2C[C@@H](O)CP(=O)(O)O
OUT: > 1000 µM

----------
# Test system: Babesia divergens
# METHOD DESCRIPTION: In vitro anti-Babesia divergens activity (infected erythrocytes, [3H]-hypoxanthine incorporation)
# Type: cell-based
# ASSAY SETUP: Babesia divergens, Erythrocyte, 16 h contact, read-out: Activity against Babesia divergens IC50
PROPERTY: IC50

Example compounds with recorded IC50:
> print(dat)
                                   compound    result
1  O=P(O)(O)C[C@H](O)CCn1cnc2cc(Cl)c(Cl)cc21 [Compound 18]    470 µM
2  N=C(N)c1ccc(OCCCCCOc2ccc(C(=N)N)cc2)cc1 [Pentamidine, reference compound]  0.183 µM
3  O=c1[nH]cnc2c1ncn2CC[C@H](O)CP(=O)(O)O [Compound 21]  > 100 µM

IN: Note down IC50 recorded for O=c1[nH]cnc2c1ncn2CC[C@@H](O)CP(=O)(O)O [Compound 20]
OUT: > 100 µM

IN: Note down IC50 recorded for O=c1[nH]c(=O)c2ncn(CC[C@@H](O)CP(=O)(O)O)c2[nH]1 [Compound 19]
OUT: > 100 µM

IN: Note down IC50 recorded for Nc1ncc2ncn(CC[C@@H](O)CP(=O)(O)O)c2n1 [Compound 16]
OUT: > 100 µM

IN: Note down IC50 recorded for O=c1[nH]c(=O)c2ncn(CC[C@H](O)CP(=O)(O)O)c2[nH]1 [Compound 22]
OUT: > 1000 µM

----------
# Tested on: Plasmodium falciparum (strain 3D7)
# METHOD DESCRIPTION: In vitro anti-Plasmodium falciparum activity (infected erythrocytes, radioactive precursor incorporation)
# Assay type: cell-based
# ASSAY SETUP: Plasmodium falciparum, 3D7, Erythrocyte; 3H-hypoxanthine detection; Batch A; 48 h contact; read-out: Activity against P. falciparum (3D7), detection 3H-Hypoxanthine, Batch A IC50
pIC50: −log10 of the molar value.
PROPERTY: pIC50

Example compounds with recorded pIC50:
> print(dat)
                               entry.smiles                       system.tested  result
1  Nc1nc2c(ncn2C[C@@H](O)CP(=O)(O)O)c(=O)[nH]1  Plasmodium falciparum (strain 3D7)  ≤ 3.00
2  O=c1[nH]c(=O)c2ncn(CC[C@H](O)CP(=O)(O)O)c2[nH]1  Plasmodium falciparum (strain 3D7)    3.04

Now look at this entry.
IN: Note down pIC50 recorded for O=c1[nH]cnc2c1ncn2CC[C@@H](O)CP(=O)(O)O
OUT: < 3.00
